experiment: Metabolic stability in CD1 mouse liver microsomes assessed as intrinsic clearance by UPLC-MS/MS analysis; assay type: ADME
Listed below: log10 of CLH values for each entry.
Each number you see is log10 of CLH, and the unit inside the log is mL/min/g.

Please review the following examples before continuing.
> print(dat)
                                    molecule  measurement
 1     CC(C)OCC(=O)c1sc(Nc2ccc(F)c(F)c2)nc1N         0.97
 2          Nc1nc(NC2CCCCC2)sc1C(=O)c1ccncc1         0.61
 3  CC(OCC(=O)c1sc(Nc2ccc(C(F)(F)F)cc2)nc1N)C(F)(F)F (stereo not given)         0.36
 4  Nc1nc(Nc2ccc(F)c(F)c2)sc1C(=O)CN1CCCC(F)(F)C1         1.52
 5  Nc1nc(Nc2ccc(F)c(F)c2)sc1C(=O)CN1C[C@H]2CC[C@@H](C1)O2         0.94
 6       Nc1nc(NC2CCCCC2)sc1C(=O)c1ccc(F)cc1         0.69
 7    Nc1nc(Nc2ccc(F)c(F)c2)sc1C(=O)CN1CCCC1         0.32
 8  Nc1nc(NC2CCCCC2)sc1C(=O)c1ccc(OC(F)F)cc1         0.46
 9  Nc1nc(Nc2ccc(F)c(F)c2)sc1C(=O)CN1CCCC1C(F)(F)F (stereo not given)         1.41
10      CC(C)CC(=O)c1sc(Nc2ccc(F)c(F)c2)nc1N         0.77

Task: Quick one: give measured log10 of CLH for Nc1nc(Nc2ccc(F)c(F)c2)sc1C(=O)CCN1CCOCC1
Output: 0.08

Task: Quick one: give measured log10 of CLH for Nc1nc(NC2CCCC(O)C2)sc1C(=O)c1c(F)cccc1F (stereo not given)
Output: 0.26

Task: Quick one: give measured log10 of CLH for Nc1nc(NC2CCCCC2)sc1C(=O)c1ccccc1C(F)(F)F
Output: 1.15

Task: Quick one: give measured log10 of CLH for Nc1nc(NC2CCCCC2)sc1C(=O)c1ccccc1F
Output: 0.99

Task: Quick one: give measured log10 of CLH for Nc1nc(Nc2ccccc2)sc1C(=O)c1ccccc1
Output: 1.08
